System tested: PTP1B (Homo sapiens)
Construct: a truncated form of PTP1B (corresponding to the first 321 amino acids)
Sequence (P18031 1-321): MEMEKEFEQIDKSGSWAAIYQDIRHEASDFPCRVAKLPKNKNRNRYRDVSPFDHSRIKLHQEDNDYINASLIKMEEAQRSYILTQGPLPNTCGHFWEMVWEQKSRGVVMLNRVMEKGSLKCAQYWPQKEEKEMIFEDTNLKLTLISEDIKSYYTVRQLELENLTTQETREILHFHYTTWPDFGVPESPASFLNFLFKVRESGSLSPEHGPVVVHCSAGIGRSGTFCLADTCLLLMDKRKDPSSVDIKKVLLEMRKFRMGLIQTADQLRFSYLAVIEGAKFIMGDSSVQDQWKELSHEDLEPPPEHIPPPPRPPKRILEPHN
Assay protocol: Inhibition of classical PTP1B (truncated, first 321 amino acids) with p-nitrophenyl phosphate substrate
Setup conditions: p-nitrophenyl phosphate 0.16 to 10 mM; 100 mM sodium acetate pH 5.5; 25° C., 60 minutes
Value kind: Ki (µM)
Numbers only, in µM.

Reported Ki of O=C(O)C(=O)Nc1cc2ccccc2cc1C(=O)O : 9.9
